Hello, the source for this data is patent US20240368168A1, in case you need it.

- target or test system: dN-SARM1 protein (Homo sapiens)
- Sequence (Q6SZW1 28-724): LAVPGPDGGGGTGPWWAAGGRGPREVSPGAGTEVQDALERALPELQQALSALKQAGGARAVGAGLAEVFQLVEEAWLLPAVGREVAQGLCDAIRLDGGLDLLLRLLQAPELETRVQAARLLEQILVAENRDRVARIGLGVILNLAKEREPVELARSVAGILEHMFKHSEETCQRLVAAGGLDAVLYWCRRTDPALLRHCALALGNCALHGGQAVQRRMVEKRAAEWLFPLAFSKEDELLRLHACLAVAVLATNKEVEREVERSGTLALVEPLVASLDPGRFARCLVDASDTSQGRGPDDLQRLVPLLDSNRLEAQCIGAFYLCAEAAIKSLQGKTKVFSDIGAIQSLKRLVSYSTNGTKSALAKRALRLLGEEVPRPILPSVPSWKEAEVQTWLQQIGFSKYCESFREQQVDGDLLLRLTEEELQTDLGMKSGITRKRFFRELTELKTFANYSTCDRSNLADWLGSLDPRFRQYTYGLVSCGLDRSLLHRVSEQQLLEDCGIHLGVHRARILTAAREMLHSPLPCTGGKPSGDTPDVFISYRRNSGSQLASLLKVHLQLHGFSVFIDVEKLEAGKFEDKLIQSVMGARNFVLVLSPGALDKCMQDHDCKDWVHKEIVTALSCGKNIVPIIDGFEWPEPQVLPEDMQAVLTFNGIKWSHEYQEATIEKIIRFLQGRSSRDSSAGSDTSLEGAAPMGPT
IC50 listing for selected molecules.

1. CN(C(=O)OC(C)(C)C)c1ccc2ncc(-c3nn4ccnc4s3)n2c1 [Compound 168]    < 1 µM
2. CNC(=O)c1ccccc1-c1cnc2ccc(NC)cn12 [Compound 176]    1 to 10 µM
3. CC(C)(C)OC(=O)N(C/C=C/c1cccc(N)c1)c1ccc2ncc(-c3cccc(N)c3)n2c1 [Compound 212]    1 to 10 µM
4. CN(C(=O)OC(C)(C)C)c1ccc2ncc(-c3cccc4nccn34)n2c1 [Compound 173]    1 to 10 µM
5. CN(C(=O)OC(C)(C)C)c1ccc2ncc(-c3cncnc3)n2c1 [Compound 283]    1 to 10 µM

q: Fill in: IC50 of Ic1cnc2ccc(-n3cccc3)cn12 [Compound 203] is ___
a: < 1 µM

q: Fill in: IC50 of Cc1ncsc1-c1ccc(CNC(=O)[C@@H]2C[C@@H](O)CN2C(=O)[C@@H](NC(=O)COCCOCC(=O)Nc2cccc(-c3cnc4ccc(N(C)C(=O)OC(C)(C)C)cn34)c2)C(C)(C)C)cc1 [Compound 113] is ___
a: 1 to 10 µM

q: Fill in: IC50 of Cc1ccccc1-c1cnc2ccc(N(C)C(=O)OC(C)(C)C)cn12 [Compound 10] is ___
a: 1 to 10 µM
